TEST DESCRIPTION: growth inhibitors of H69AR lung tumor, primary screen, human, duplicate replicates (AID 580)
STATED CONDITIONS: H69AR lung tumor cells viability, ATP luminescence, 72 h; at 10 µM; active compounds read low
Label key: satisfied means viability under 90%; not satisfied means viability of 90% or more.

>>> qualitative_label("CCN(C(=O)c1cc2cc3ccc(C)cc3nc2o1)c1ccc(OC)cc1")
"satisfied"
>>> qualitative_label("COc1ccc(OC)c(C(=O)c2nc3c(n2O)CCCCC3)c1")
"not satisfied"
>>> qualitative_label("CN1C(=O)CC(C(=O)Nc2ccc(F)cc2)SC1=Nc1ccc2c(c1)OCO2 (stereo unspecified)")
"satisfied"
>>> qualitative_label("CCOC(=O)c1cc2n(n1)C(C(F)(F)C(F)(F)F)CC(C)N2 (stereo unspecified)")
"not satisfied"
>>> qualitative_label("CC(Oc1ccc(Br)cc1)C(=O)N1CCc2ccccc21 (stereo unspecified)")
"not satisfied"
>>> qualitative_label("Cc1cc(C)c(C)c(S(=O)(=O)Nc2ccc(O)cc2)c1C")
"not satisfied"
>>> qualitative_label("COC(=O)C1=C(C)OC(N)=C(C#N)C1c1c(C)nn(-c2ccccc2)c1Cl (stereo unspecified)")
"satisfied"
>>> qualitative_label("O=C(COC(=O)C1=COCCO1)Nc1ccccc1Oc1ccccc1")
"not satisfied"
>>> qualitative_label("COc1ccc(C2=Nn3c(nnc3-c3ccccc3)SC2)cc1OC")
"satisfied"
>>> qualitative_label("CCn1c(=O)cc(OCC(=O)Nc2cc(C)ccn2)c2ccccc21")
"satisfied"
